Tested target: HCV-NS5b (Hepatitis C virus genotype 1b)
Construct: (His)6 (C); made in house; host or cells: XL-1 cells (E. coli), IPTG-inducible plasmid, nickel-NTA purification
Test description: HCV-NS5b enzyme assay (incorporation of radiolabeled UTP)
Assay type: biochemical
Condition summary: enzyme inhibition at compound concentration of 33 uM
Assign inhibition at 33 µM to each entry below.
Respond with the bare value in %.

(Q) Name the recorded inhibition at 33 µM for O=C(O)c1ccc2c(c1)nc(-c1ccc3nc(-c4cc(F)ccc4-c4ccc(Cl)cc4)ccc3c1)n2C1CCCCC1 [Compound 563] .
(A) 101

(Q) Please do the same for O=C(O)c1ccc2c(c1)nc(-c1ccc3nc(-c4ccccc4-c4ccc(Cl)cc4)c(-c4ccccc4)cc3c1)n2C1CCCCC1 [Compound 440] as well.
(A) 99.2

(Q) Please do the same for Cc1onc(-c2ccc(Cl)cc2)c1-c1ccc2cc(-c3nc4cc(C(=O)O)ccc4n3C3CCCCC3)ccc2n1 [Compound 396] as well.
(A) 100

(Q) Please do the same for COc1ccc(-c2ccc(O)cc2)c(-c2ccc3cc(-c4nc5cc(C(=O)O)ccc5n4C4CCCCC4)ccc3n2)c1 [Compound 469] as well.
(A) 94.2

(Q) Please do the same for COc1cc(O)c(-c2ccc3cc(-c4nc5cc(C(=O)O)ccc5n4C4CCCCC4)ccc3n2)c(OC)c1 [Compound 452] as well.
(A) 102

(Q) Please do the same for CNC(=O)c1ccc(-c2ccc(Cl)cc2)c(-c2ccc3cc(-c4nc5cc(C(=O)O)ccc5n4C4CCCCC4)ccc3n2)c1 [Compound 378] as well.
(A) 100

(Q) Please do the same for O=C(c1ccc(-c2ccc(Cl)cc2)c(-c2ccc3cc(-c4nc5cc(-c6nnn[nH]6)ccc5n4C4CCCCC4)ccc3n2)c1)N1CCCC1 [Compound 259] as well.
(A) 99.7

(Q) Please do the same for COc1ccc(-c2ccc(C(F)(F)F)cc2)c(-c2ccc3cc(-c4nc5cc(C(=O)O)ccc5n4C4CCCCC4)ccc3n2)c1 [Compound 436] as well.
(A) 98.8

(Q) Please do the same for COc1ccc(-c2cccc(Cl)c2)c(-c2ccc3cc(-c4nc5cc(C(=O)O)ccc5n4C4CCCCC4)ccc3n2)c1 [Compound 422] as well.
(A) 98.8

(Q) Please do the same for O=C(O)c1ccc2c(c1)nc(-c1ccc3nc(-c4cccc(C(=O)N5CCCC5)c4)ccc3c1)n2C1CCCCC1 [Compound 370] as well.
(A) 97.8

(Q) Please do the same for COCCOc1cccc(-c2ccc3cc(-c4nc5cc(C(=O)O)ccc5n4C4CCCCC4)ccc3n2)c1 [Compound 445] as well.
(A) 96.9

(Q) Please do the same for O=C(N[C@@H](Cc1c[nH]cn1)C(=O)O)c1ccc2c(c1)nc(-c1ccc3nc(-c4ccccc4)cnc3c1)n2C1CCCCC1 [Compound 247] as well.
(A) 66.8

(Q) Please do the same for CN(C)c1cc(-c2ccccc2)nc2ccc(-c3nc4cc(C(=O)O)ccc4n3C3CCCCC3)cc12 [Compound 481] as well.
(A) 76.5

(Q) Please do the same for O=C(O)c1cnc2c(c1)nc(-c1ccc3nc(-c4ccccc4Br)ccc3c1)n2C1CCCCC1 [Compound 477] as well.
(A) 92.4

(Q) Please do the same for Cc1cc(-c2ccccc2)nc2ccc(-c3nc4cc(C(=O)O)ccc4n3C3CCCCC3)cc12 [Compound 498] as well.
(A) 98.5

(Q) Please do the same for O=C(O)c1ccc2c(c1)nc(-c1ccc3nc(-c4cc(O)cc(O)c4)ccc3c1)n2C1CCCCC1 [Compound 381] as well.
(A) 94.3

(Q) Please do the same for O=C(N[C@@H](Cc1ccccc1)C(=O)O)c1ccc2c(c1)nc(-c1ccc3nc(-c4ccccc4)cnc3c1)n2C1CCCCC1 [Compound 246] as well.
(A) 95.9

(Q) Please do the same for NC(=O)CC[C@H](NC(=O)c1ccc2c(c1)nc(-c1ccc3nc(-c4ccccc4)cnc3c1)n2C1CCCCC1)C(=O)O [Compound 541] as well.
(A) 76.1

(Q) Please do the same for COc1ccc(-c2ccc(Cl)cc2)c(-c2ccc3cc(-c4[nH]c5cc(C(=O)O)ccc5c4C4CCCCC4)ccc3n2)c1 [Compound 536] as well.
(A) 97.5

(Q) Please do the same for COc1ccc(-c2ccc(Cl)cc2)c(-c2ccc3cc(-c4nc5cc(C(=O)O)ccc5n4CCN(C)C)ccc3n2)c1 [Compound 533] as well.
(A) 56.8

(Q) Please do the same for O=C(O)COc1cccc(-c2ccc3cc(-c4nc5cc(C(=O)O)ccc5n4C4CCCCC4)ccc3n2)c1 [Compound 359] as well.
(A) 97.3

(Q) Please do the same for CN1CCN(C(=O)c2ccc3c(c2)nc(-c2cc4ccc(-c5ccccc5-c5ccccc5)nc4cc2F)n3C2CCCCC2)CC1 [Compound 522] as well.
(A) 76.7

(Q) Please do the same for O=C(O)c1ccc2c(c1)nc(-c1ccc3ncc(-c4ccccc4)nc3c1)n2C1CCCCC1 [Compound 205] as well.
(A) 84.4

(Q) Please do the same for O=C(O)c1ccc2c(c1)nc(-c1ccc3nc(-c4cc(C(=O)N5CCCC5)ccc4-c4ccc(Cl)cc4)ccc3c1)n2C1CCCCC1 [Compound 204] as well.
(A) 99.7

(Q) Please do the same for COc1ccc(-c2cnc(OC)nc2OC)c(-c2ccc3cc(-c4nc5cc(C(=O)O)ccc5n4C4CCCCC4)ccc3n2)c1 [Compound 484] as well.
(A) 99.6

(Q) Please do the same for COc1ccc(-c2ccc(Cl)c(Cl)c2)c(-c2ccc3cc(-c4nc5cc(C(=O)O)ccc5n4C4CCCCC4)ccc3n2)c1 [Compound 403] as well.
(A) 99.4

(Q) Please do the same for N=C(N)NCCC[C@H](NC(=O)c1ccc2c(c1)nc(-c1ccc3nc(-c4ccccc4)cnc3c1)n2C1CCCCC1)C(=O)O [Compound 523] as well.
(A) 87.1
